For each entry below, report its Tmax value.
Run description: Pharmacokinetic studies in Beagle dogs after oral administration of SNAC-based tablets
Format: in vivo
Condition info: dogs, oral administration (tablet)
Starred links: 1 amine or outer side, 2 acyl side, 3 side chain; linkers in the order of their positions; H or OH if unused. Non-standard residues stand in square brackets, D forms with d. Groups on a side chain read outwards from the residue. *: point of attachment. C20 diacid = O=C(O)CCCCCCCCCCCCCCCCCCC(=O)*; γGlu = O=C(O)[C@H](CCC(=O)[*:2])N[*:1]; εLys = N[C@@H](CCCCN[*:1])C(=O)[*:2]; AEEA = NCCOCCOCC(=O)O; Aib = CC(C)(N)C(=O)O
Answers are plain numbers, in h.

// worked examples, Tmax included
H-Aib-EGTFTSDVSSYLEEQAAREFIAWLVRGR-K([(2S)-2-Amino-6-[[2-[2-[2-[[2-[2-[2-[[(4S)-4-Carboxy-4-[[4-[(19-Carboxynonadecanoylamino)Methyl]Cyclohexanecarbonyl]Amino]Butanoyl]Amino]Ethoxy]Ethoxy]Acetyl]Amino … (peptide) peptide: H[Aib]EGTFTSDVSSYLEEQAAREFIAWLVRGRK([εLys-AEEA-AEEA-γGlu-4‑(aminomethyl)cyclohexanecarbonyl-C20 diacid])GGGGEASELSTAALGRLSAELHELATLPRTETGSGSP-NH2 | 2.0
HWEGTFTSDVSSYLEEQAAR-K([2-[2-[2-[[2-[2-[2-[[(4S)-4-Carboxy-4-[[4-[(19-Carboxynonadecanoylamino)Methyl]Cyclohexanecarbonyl]Amino]Butanoyl]Amino]Ethoxy]Ethoxy]Acetyl]Amino]Ethoxy]Ethoxy]Acetyl])-FIEWLVR … (peptide) peptide: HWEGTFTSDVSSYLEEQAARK([AEEA-AEEA-γGlu-4‑(aminomethyl)cyclohexanecarbonyl-C20 diacid])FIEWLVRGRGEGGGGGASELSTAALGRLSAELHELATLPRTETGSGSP-NH2 | 1.8
H-Aib-EGTFTSDVS-K([2-[2-[2-[[2-[2-[2-[[(4S)-4-Carboxy-4-[[4-[(19-Carboxynonadecanoylamino)Methyl]Cyclohexanecarbonyl]Amino]Butanoyl]Amino]Ethoxy]Ethoxy]Acetyl]Amino]Ethoxy]Ethoxy]Acetyl])-YLEEQAAREFIA … (peptide) peptide: H-H[Aib]EGTFTSDVSK([AEEA-AEEA-γGlu-4‑(aminomethyl)cyclohexanecarbonyl-C20 diacid])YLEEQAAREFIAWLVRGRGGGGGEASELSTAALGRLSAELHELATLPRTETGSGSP-NH2 | 2.0

Now look at this entry.
Tmax measured on H-Aib-EGTFTSDVSSYLEEQAAREFIAWLVRGRP-K([2-[2-[2-[[2-[2-[2-[[(4S)-4-Carboxy-4-[[4-[(19-Carboxynonadecanoylamino)Methyl]Cyclohexanecarbonyl]Amino]Butanoyl]Amino]Ethoxy]Ethoxy]Acetyl]Amino]Ethoxy]Ethoxy]A … (peptide) peptide: H[Aib]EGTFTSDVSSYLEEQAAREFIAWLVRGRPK([AEEA-AEEA-γGlu-4‑(aminomethyl)cyclohexanecarbonyl-C20 diacid])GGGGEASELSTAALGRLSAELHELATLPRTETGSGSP-NH2 = 3.0
